# Protocol Text: Midazolam permeability of intestinal epithelial cells (apical to basolateral, cell culture insert)
# Format: in vitro ADME
# Test Settings: human, cells of Example 4; scaling factor x = 2; read-out: Apparent permeability coefficient after correction
Observed Property: Papp at 60 min, 10 μmol/L (×10⁻⁶ cm/s)
Provide the reading as a plain figure in ×10⁻⁶ cm/s.

Quick one: Papp at 60 min, 10 μmol/L for "Cc1ncc2n1-c1ccc(Cl)cc1C(c1ccccc1F)=NC2" ? 21.9

###

# Protocol Text: Midazolam permeability of intestinal epithelial cells (apical to basolateral, cell culture insert)
# Type: in vitro ADME
# Test Settings: human, cells of Example 5; 10 μmol/L midazolam apical pH 6.5, basolateral pH 7.4, 37° C., 60 minutes; read-out: Apparent permeability coefficient
# Method: The midazolam permeability of the intestinal epithelial cells obtained in Comparative Examples 1 and Examples 1 to 5 was evaluated. […] The amount of each compound (unchanged form) was quantified using a liquid chromatography-mass spectrometer (LC-MS/MS). The apparent permeability coefficient (Papp) was calculated from the quantification result. […]
Observed Property: Papp A→B at 60 min, 10 μmol/L (×10⁻⁶ cm/s)
Provide the reading as a plain figure in ×10⁻⁶ cm/s.

Quick one: Papp A→B at 60 min, 10 μmol/L for Cc1ncc2n1-c1ccc(Cl)cc1C(c1ccccc1F)=NC2 [midazolam] ? 31
